# ASSAY OVERVIEW: folding stability dG unfold (combined trypsin and chymotrypsin); higher = more stable
I would appreciate it if you labelled entries satisfied when folding stability dG unfold is 1 kcal/mol or higher, otherwise not satisfied.

SEQ TEXT | QUALITATIVE LABEL
SAGIKIKDISRDPNGYVEVTIVYPPGKSIKEIIELIRKLFGFKIEKVEIYPSPNGVYITYRFRIPEGAISAG [r5_774_TrROS] | satisfied
SAGGSAGGSAGGETITIKNKKTNETVTIEKDKDGNYTITYPDGSKKTYKKGEKISKSALSAGGSAGGSAGGS [r10_98_TrROS_Hall] | not satisfied
SAGGSAGGSAGGMVVLKTPERFVVVESVEVYVPVRDPDGTPVRWSPVRTEVRVTVIPPLASAGGSAGGSAGG [r7_3_JUSTAS] | satisfied
SAGGKEVKITFKAPKEEAVPKVKKAAEEYGVTVKSIDYDPETGKVTVVVDDSVPEEKVKEAFEKVLKSAGGS [r8_338_TrMRF] | satisfied
SMKTLIVEGMTPEEIRALAEEAAKKGEEVEIEIVVKDNEEIKEALEEAGVEVEEVEDPETKEKVLKVTVKSA [r9_759_TrROS_Hall] | not satisfied
SAGGSAGGSGGKPLLIFTAMNGPEAEELVKKLLEEGGAGPIVAVVIPAPKDDPLFKEFFEKLKSAGGSAGGS [r12_649_TrMRF] | satisfied
SAGGSAGGSGGMMPVTLTITPVNPPGASTSSTTIPVNFTSPEEAAAAKEKIAAELPSNATVTGSAGGSAGGS [r20_211_JUSTAS] | not satisfied
